Values compiled from patent US10080366B2.

System: harvested fruit of grape (variety: Barikan)
Settings: 10 g/L; 25° C.; mass 100 g on date of application
endpoint: Mass (g) 6 days later (Jun. 8)
Please append the unit to your numeric answer.

compound	Mass (g) 6 days later (Jun. 8)
O=C([O-])O.[K+] [Potassium hydrogen carbonate, potassium hydrogen carbonate]	79.4 g

// Mass (g) 6 days later (Jun. 8) lookup, key: O=C([O-])[O-].[K+].[K+] [Potassium carbonate, potassium carbonate] 80.7 g

What value of Mass (g) 6 days later (Jun. 8) has been recorded for this entry: O=P([O-])([O-])OP(=O)([O-])[O-].[K+].[K+].[K+].[K+] [Tetrapotassium pyrophosphate, tetrapotassium pyrophosphate] 85.7 g

// returns reported Mass (g) 6 days later (Jun. 8) for input [Ca+2].[Cl-].[Cl-] [Calcium chloride, reference compound] 86.3 g

----------
Estimated amount (g) of transpiration per 100 g of fruit on date of application values, listed per item
System: fruit of grape (variety: Red Globe)
Conditions: 16 days later
Experimental: An agent for increasing a sugar content in a fruit (containing Sorbon T-20 as a spreader/sticker at a final concentration of 200 μL/L) diluted with water to have a potassium hydrogen carbonate concentration of 10 g/L was prepared. The mass of fruit of grape (variety: Red Globe) purchased on the market was measured. […] In addition, as a control, the mass of untreated grape was measured on each date of measurement in the same manner. […]
Lab book: enter the figure in g, no units written.

Would you mind telling me what Estimated amount (g) of transpiration per 100 g of fruit on date of application value was observed for O=C([O-])O.[Na+] [Sodium hydrogen carbonate, sodium hydrogen carbonate] ? 35.6

Using the record for O=P([O-])([O-])[O-].[K+].[K+].[K+] [Tripotassium phosphate, tripotassium phosphate] , report its Estimated amount (g) of transpiration per 100 g of fruit on date of application. 41.1

Any idea what its Estimated amount (g) of transpiration per 100 g of fruit on date of application is? The compound is O=C([O-])[O-].[Na+].[Na+] [Sodium carbonate, sodium carbonate] 38.7

Which Estimated amount (g) of transpiration per 100 g of fruit on date of application is reported for this compound? O=C([O-])[O-].[K+].[K+] [Potassium carbonate, potassium carbonate] 51.3

Tell me the measured Estimated amount (g) of transpiration per 100 g of fruit on date of application of O=C([O-])O.[K+] [Potassium hydrogen carbonate, potassium hydrogen carbonate] , please. 47.9

----------
System: fruit of grape (variety: Red Globe)
Settings: 5 days later
endpoint: Estimated amount (g) of transpiration per 100 g of fruit on date of application
Could you kindly put the unit after your number?

Solved cases below.
compound	recorded-value
O=C([O-])O.[Na+] [Sodium hydrogen carbonate, sodium hydrogen carbonate]	12.4 g
O=C([O-])[O-].[Na+].[Na+] [Sodium carbonate, sodium carbonate]	14.1 g
O=P([O-])([O-])[O-].[K+].[K+].[K+] [Tripotassium phosphate, tripotassium phosphate]	15.9 g

Give its Estimated amount (g) of transpiration per 100 g of fruit on date of application value. Item: O=C([O-])[O-].[K+].[K+] [Potassium carbonate, potassium carbonate] 18.8 g

Which Estimated amount (g) of transpiration per 100 g of fruit on date of application is listed for O=C([O-])O.[K+] [Potassium hydrogen carbonate, potassium hydrogen carbonate] ? 17.4 g
